The values you see were collected from ChEMBL document CHEMBL5303573.

assay: The drug is tested on Bacteroides dorei strain: DSM17855 for biotransformation. The drug concentrations were measured before and after a 12-h incubation by liquid-chromatography-coupled mass spectrometry (LC–MS); details: phocaeicola dorei, 2 µM
metric_name: Bacterial Biotransformation

Would you please look over these solved cases?
>>> meas_value("CC(=O)OCC(=O)[C@@]12N=C(C)O[C@@H]1C[C@H]1[C@@H]3CCC4=CC(=O)C=C[C@]4(C)[C@H]3[C@@H](O)C[C@@]12C [DEFLAZACORT]")
"Compound metabolized"
>>> meas_value("Cc1ccc(S(=O)(=O)NC(=O)NN2CC3CCCC3C2)cc1 (configuration not stated) [GLICLAZIDE]")
"Compound metabolized"
>>> meas_value("CN1CCN(CC/C=C2/c3ccccc3Sc3ccc(S(=O)(=O)N(C)C)cc32)CC1 [THIOTHIXENE]")
"Compound metabolized"
>>> meas_value("N=C(N)NC(=O)Cc1c(Cl)cccc1Cl [GUANFACINE]")
"Compound NOT metabolized"

# Bacterial Biotransformation (molecule: O=C1CN2Cc3c(ccc(Cl)c3Cl)N=C2N1 [ANAGRELIDE] ) is Compound metabolized

# Bacterial Biotransformation (molecule: CCc1nc(N)nc(N)c1-c1ccc(Cl)cc1 [PYRIMETHAMINE] ) is Compound NOT metabolized

# Bacterial Biotransformation (molecule: CCCc1nc(C(C)(C)O)c(C(=O)OCc2oc(=O)oc2C)n1Cc1ccc(-c2ccccc2-c2nnn[nH]2)cc1 [OLMESARTAN MEDOXOMIL] ) is Compound metabolized

# Bacterial Biotransformation (molecule: CCS(=O)(=O)CCn1c([N+](=O)[O-])cnc1C [TINIDAZOLE] ) is Compound metabolized

# Bacterial Biotransformation (molecule: COc1ccc2cc([C@H](C)C(=O)O)ccc2c1 [NAPROXEN] ) is Compound NOT metabolized

# Bacterial Biotransformation (molecule: CCCCCNC(=N)N/N=C/c1c[nH]c2ccc(OC)cc12.O=C(O)/C=C\C(=O)O [TEGASEROD MALEATE] ) is Compound NOT metabolized

# Bacterial Biotransformation (molecule: COc1ccccc1OCC(O)COC(N)=O (configuration not stated) [METHOCARBAMOL] ) is Compound NOT metabolized

# Bacterial Biotransformation (molecule: CCCCC(=O)O[C@]1(C(=O)CO)[C@@H](C)C[C@H]2[C@@H]3CCC4=CC(=O)C=C[C@]4(C)[C@@]3(F)[C@@H](O)C[C@@]21C [BETAMETHASONE VALERATE] ) is Compound metabolized

# Bacterial Biotransformation (molecule: CC(=O)O[C@]1(C(C)=O)CC[C@H]2[C@@H]3C=C(C)C4=CC(=O)CC[C@]4(C)[C@H]3CC[C@@]21C [MEGESTROL ACETATE] ) is Compound metabolized

# Bacterial Biotransformation (molecule: CN(C/C=C/C#CC(C)(C)C)Cc1cccc2ccccc12 [TERBINAFINE] ) is Compound NOT metabolized

# Bacterial Biotransformation (molecule: CC1=C(CC(=O)O)c2cc(F)ccc2/C1=C\c1ccc([S+](C)[O-])cc1 (configuration not stated) ) is Compound NOT metabolized

# Bacterial Biotransformation (molecule: CC[C@H](C)C(=O)O[C@H]1C[C@@H](C)C=C2C=C[C@H](C)[C@H](CC[C@@H]3C[C@@H](O)CC(=O)O3)[C@H]21 [LOVASTATIN] ) is Compound metabolized

# Bacterial Biotransformation (molecule: COc1ccnc(C[S+]([O-])c2nc3ccc(OC(F)F)cc3[nH]2)c1OC (configuration not stated) [PANTOPRAZOLE] ) is Compound metabolized
